src = PubChem BioAssay (NCI)

Entries and their TGI
- Test system: MDA-MB-468 breast
- experiment.description: NCI tumour cell line growth inhibition, 48 h
reported.metric: TGI (µM)

>>> quantitative_result("Cc1ccc(-c2cc3nc(C(Cl)Cl)nc(-c4ccco4)n3n2)cc1")
3.05
>>> quantitative_result("O=C(/C=C\\c1ccc2ccccc2n1)c1cc(Cl)ccc1O")
19.7
>>> quantitative_result("C=C(C)[C@@H]1CC[C@]2(C(=O)NCCNCCNCCN)CC[C@]3(C)[C@H](CC[C@@H]4[C@@]5(C)CCC(=O)C(C)(C)[C@@H]5CC[C@]43C)[C@@H]12")
16.1
>>> quantitative_result("COC(=O)[C@@H]1CCCN1C(=O)[C@H]1CCCN1C(=O)[C@@H](Cc1c[nH]c2ccccc12)NC(=S)Nc1cc(C(F)(F)F)cc(C(F)(F)F)c1")
6.94
>>> quantitative_result("O=[N+]([O-])/C=C/c1ccc([N+](=O)[O-])cc1")
3.3
>>> quantitative_result("COC1[C@@H]2C[C@H]3C(C)(C)O[C@@](C/C=C(/C)C(=O)O)(C2=O)[C@]32Oc3c(CC=C(C)C)c4c(c(O)c3C(=O)[C@H]12)C=CC(C)(C)O4 (stereo partly specified)")
25
